- System: Aspergillus flavus
- Test Protocol: Antifungal activity against Aspergillus flavus assessed as reduction in fungal cell growth incubated for 48 hrs by serial dilution method
- Format: functional
Activity calls are given as the source filed them. The rule behind the calls is not given here.

{"Molecule": "N#Cc1c(Cl)c(Cl)c(Cl)c(C#N)c1Cl", "MIC": "7.81 µg/mL"}
{"Molecule": "Cc1ccccc1CN1c2ccccc2C2(Cc3ccccc3C)CCN(C(=O)C(F)(F)F)C12 (configuration not stated)", "MIC": "250 µg/mL"}
{"Molecule": "CCCCCC(=O)N1CCC2(Cc3ccccc3C)c3ccccc3N(Cc3ccccc3C)C12 (configuration not stated)", "MIC": "250 µg/mL"}
{"Molecule": "CCCCCCCC(=O)N1CCC2(Cc3ccccc3C)c3ccccc3N(Cc3ccccc3C)C12 (configuration not stated)", "MIC": "250 µg/mL"}
{"Molecule": "Cc1ccccc1CN1c2ccccc2C2(Cc3ccccc3C)CCN(S(=O)(=O)c3ccccc3)C12 (configuration not stated)", "MIC": "250 µg/mL"}
{"Molecule": "CCCCCCC(=O)N1CCCC2(O)c3ccccc3N(C)C12 (configuration not stated)", "MIC": "inactive"}
{"Molecule": "Cc1cccc(CN2c3ccccc3C3(Cc4cccc(C)c4)CCN(C(=O)c4ccccc4C)C23)c1 (configuration not stated)", "MIC": "250 µg/mL"}
{"Molecule": "CC(C)C(=O)N1CCCC2(O)c3ccccc3N(C)C12 (configuration not stated)", "MIC": "inactive"}
{"Molecule": "CN1c2ccccc2C2(O)CCCN(C(=O)c3cccc(F)c3)C12 (configuration not stated)", "MIC": "inactive"}
{"Molecule": "Cc1cccc(CN2c3ccccc3C3(Cc4cccc(C)c4)CCN(C(=O)CCc4ccccc4)C23)c1 (configuration not stated)", "MIC": "250 µg/mL"}
{"Molecule": "Cc1cccc(CN2c3ccccc3C3(Cc4cccc(C)c4)CCN(C(=O)Cc4ccccc4)C23)c1 (configuration not stated)", "MIC": "250 µg/mL"}
{"Molecule": "COC(=O)Nc1nc2ccccc2[nH]1", "MIC": "7.81 µg/mL"}

* * *

- Tested on: Aspergillus flavus
- Test Protocol: Antifungal activity against Aspergillus flavus assessed as reduction in fungal cell growth incubated for 48 hrs by serial dilution method
- Type: functional
Calls of active or inactive are those of the source. The rule behind the calls is not given here.

{"Compound": "CCCCC(=O)N1CCC2(Cc3ccccc3C)c3ccccc3N(Cc3ccccc3C)C12 (stereo not drawn)", "MIC": "250 µg/mL"}
{"Compound": "Cc1ccc(C(=O)N2CCCC3(O)c4ccccc4N(C)C23)cc1 (stereo not drawn)", "MIC": "inactive"}
{"Compound": "CCCC(=O)N1CCCC2(O)c3ccccc3N(C)C12 (stereo not drawn)", "MIC": "inactive"}

* * *

- System: Curvularia lunata
- Test Protocol: Antifungal activity against Curvularia lunata assessed as reduction in fungal cell growth incubated for 48 hrs by serial dilution method
- Assay type: functional
Calls of active or inactive are those of the source. The rule behind the calls is not given here.

{"Compound": "CN1c2ccccc2C2(O)CCCN(C(=O)c3cccc(F)c3)C12 (centres undefined)", "MIC": "inactive"}
{"Compound": "Cc1cccc(CN2c3ccccc3C3(Cc4cccc(C)c4)CCN(C(=O)C(C)C)C23)c1 (centres undefined)", "MIC": "inactive"}
{"Compound": "COC(=O)Nc1nc2ccccc2[nH]1 [CARBENDAZIM]", "MIC": "250 µg/mL"}
{"Compound": "CCC(=O)N1CCCC2(O)c3ccccc3N(C)C12 (centres undefined)", "MIC": "inactive"}

* * *

- Test system: Staphylococcus aureus
- Test Protocol: Antibacterial activity against Staphylococcus aureus assessed as reduction in bacterial cell growth incubated for 24 hrs by filter paper assay
- Format: functional
Activity calls are given as the source filed them. No cut-off for these calls is given here.

{"Compound": "CCCCCCC(=O)N1CCC2(Cc3cccc(C)c3)c3ccccc3N(Cc3cccc(C)c3)C12 (centres undefined)", "Target Under Test": "Staphylococcus aureus", "MIC": "250 µg/mL"}
{"Compound": "CCCCCCC(=O)N1CCC2(Cc3ccccc3C)c3ccccc3N(Cc3ccccc3C)C12 (centres undefined)", "Target Under Test": "Staphylococcus aureus", "MIC": "inactive"}
{"Compound": "Cc1cccc(CN2c3ccccc3C3(Cc4cccc(C)c4)CCN(C(=O)CCc4ccccc4)C23)c1 (centres undefined)", "Target Under Test": "Staphylococcus aureus", "MIC": "inactive"}
{"Compound": "CCCCCC(=O)N1CCCC2(O)c3ccccc3N(C)C12 (centres undefined)", "Target Under Test": "Staphylococcus aureus", "MIC": "125 µg/mL"}
{"Compound": "CCCCCCCC(=O)N1CCCC2(O)c3ccccc3N(C)C12 (centres undefined)", "Target Under Test": "Staphylococcus aureus", "MIC": "62.5 µg/mL"}
{"Compound": "Cc1ccc(S(=O)(=O)N2CCC3(Cc4ccccc4C)c4ccccc4N(Cc4ccccc4C)C23)cc1 (centres undefined)", "Target Under Test": "Staphylococcus aureus", "MIC": "250 µg/mL"}
{"Compound": "Cc1cccc(CN2c3ccccc3C3(Cc4cccc(C)c4)CCN(C(=O)C(C)C)C23)c1 (centres undefined)", "Target Under Test": "Staphylococcus aureus", "MIC": "inactive"}
{"Compound": "CCC(=O)N1CCCC2(O)c3ccccc3N(C)C12 (centres undefined)", "Target Under Test": "Staphylococcus aureus", "MIC": "inactive"}
{"Compound": "COc1ccc(C(=O)N2CCC3(Cc4ccccc4C)c4ccccc4N(Cc4ccccc4C)C23)cc1 (centres undefined)", "Target Under Test": "Staphylococcus aureus", "MIC": "inactive"}
{"Compound": "Cc1ccccc1CN1c2ccccc2C2(Cc3ccccc3C)CCN(C(=O)C(F)(F)F)C12 (centres undefined)", "Target Under Test": "Staphylococcus aureus", "MIC": "inactive"}
{"Compound": "Cc1ccccc1CN1c2ccccc2C2(Cc3ccccc3C)CCN(C(=O)c3ccccc3C)C12 (centres undefined)", "Target Under Test": "Staphylococcus aureus", "MIC": "250 µg/mL"}
{"Compound": "COc1ccc(C(=O)N2CCC3(Cc4cccc(C)c4)c4ccccc4N(Cc4cccc(C)c4)C23)cc1 (centres undefined)", "Target Under Test": "Staphylococcus aureus", "MIC": "inactive"}
{"Compound": "Cc1cccc(CN2c3ccccc3C3(Cc4cccc(C)c4)CCN(C(=O)c4ccccc4)C23)c1 (centres undefined)", "Target Under Test": "Staphylococcus aureus", "MIC": "inactive"}
{"Compound": "CCCCC(=O)N1CCC2(Cc3ccccc3C)c3ccccc3N(Cc3ccccc3C)C12 (centres undefined)", "Target Under Test": "Staphylococcus aureus", "MIC": "250 µg/mL"}

* * *

- System: Cryptococcus neoformans
- Test Protocol: Antifungal activity against Cryptococcus neoformans assessed as reduction in fungal cell growth incubated for 48 hrs by serial dilution method
- Type: functional
Activity calls are given as the source filed them. The rule behind the calls is not given here.

{"Compound": "CCCCCCC(=O)N1CCCC2(O)c3ccccc3N(C)C12 (configuration not stated)", "Target Under Test": "Cryptococcus neoformans", "MIC": "125 µg/mL"}
{"Compound": "CN1c2ccccc2C2(O)CCCN(C(=O)c3cccc(F)c3)C12 (configuration not stated)", "Target Under Test": "Cryptococcus neoformans", "MIC": "inactive"}
{"Compound": "CCC(=O)N1CCC2(Cc3cccc(C)c3)c3ccccc3N(Cc3cccc(C)c3)C12 (configuration not stated)", "Target Under Test": "Cryptococcus neoformans", "MIC": "inactive"}
{"Compound": "Cc1cccc(C(=O)N2CCCC3(O)c4ccccc4N(C)C23)c1 (configuration not stated)", "Target Under Test": "Cryptococcus neoformans", "MIC": "inactive"}
{"Compound": "Cc1cccc(CN2c3ccccc3C3(Cc4cccc(C)c4)CCN(C(=O)C(C)C)C23)c1 (configuration not stated)", "Target Under Test": "Cryptococcus neoformans", "MIC": "inactive"}
{"Compound": "CN1c2ccccc2C2(O)CCCN(C(=O)c3ccccc3)C12 (configuration not stated)", "Target Under Test": "Cryptococcus neoformans", "MIC": "inactive"}
{"Compound": "CC(=O)N1CCCC2(O)c3ccccc3N(C)C12 (configuration not stated)", "Target Under Test": "Cryptococcus neoformans", "MIC": "inactive"}
{"Compound": "Cc1ccccc1CN1c2ccccc2C2(Cc3ccccc3C)CCN(C(=O)COc3ccccc3)C12 (configuration not stated)", "Target Under Test": "Cryptococcus neoformans", "MIC": "inactive"}
{"Compound": "Cc1ccccc1CN1c2ccccc2C2(Cc3ccccc3C)CCN(C(=O)c3ccccc3C)C12 (configuration not stated)", "Target Under Test": "Cryptococcus neoformans", "MIC": "inactive"}
{"Compound": "Cc1ccc(C(=O)N2CCCC3(O)c4ccccc4N(C)C23)cc1 (configuration not stated)", "Target Under Test": "Cryptococcus neoformans", "MIC": "inactive"}
{"Compound": "CCCCCCC(=O)N1CCC2(Cc3ccccc3C)c3ccccc3N(Cc3ccccc3C)C12 (configuration not stated)", "Target Under Test": "Cryptococcus neoformans", "MIC": "inactive"}
{"Compound": "CCC(=O)N1CCCC2(O)c3ccccc3N(C)C12 (configuration not stated)", "Target Under Test": "Cryptococcus neoformans", "MIC": "inactive"}

* * *

- System: Penicillium citrinum
- Test Protocol: Antifungal activity against Penicillium citrinum assessed as reduction in fungal cell growth incubated for 48 hrs by serial dilution method
- Type: functional
Calls of active or inactive are those of the source. The rule behind the calls is not given here.

{"Compound": "Cc1ccc(S(=O)(=O)N2CCC3(Cc4cccc(C)c4)c4ccccc4N(Cc4cccc(C)c4)C23)cc1 (centres undefined)", "MIC": "inactive"}
{"Compound": "Cc1cccc(CN2c3ccccc3C3(Cc4cccc(C)c4)CCN(C(=O)C(F)(F)F)C23)c1 (centres undefined)", "MIC": "inactive"}
{"Compound": "Cc1cccc(CN2c3ccccc3C3(Cc4cccc(C)c4)CCN(C(=O)Cc4ccccc4)C23)c1 (centres undefined)", "MIC": "250 µg/mL"}
{"Compound": "CCCC(=O)N1CCCC2(O)c3ccccc3N(C)C12 (centres undefined)", "MIC": "inactive"}
{"Compound": "CCCCCCC(=O)N1CCCC2(O)c3ccccc3N(C)C12 (centres undefined)", "MIC": "inactive"}
{"Compound": "CCCCCC(=O)N1CCCC2(O)c3ccccc3N(C)C12 (centres undefined)", "MIC": "inactive"}
{"Compound": "CC(C)C(=O)N1CCCC2(O)c3ccccc3N(C)C12 (centres undefined)", "MIC": "inactive"}
{"Compound": "Cc1cccc(CN2c3ccccc3C3(Cc4cccc(C)c4)CCN(S(=O)(=O)c4ccccc4)C23)c1 (centres undefined)", "MIC": "inactive"}
{"Compound": "Cc1cccc(CN2c3ccccc3C3(Cc4cccc(C)c4)CCN(C(=O)C(C)C)C23)c1 (centres undefined)", "MIC": "inactive"}
{"Compound": "COC(=O)Nc1nc2ccccc2[nH]1 [CARBENDAZIM]", "MIC": "1.96 µg/mL"}
{"Compound": "CCCCCC(=O)N1CCC2(Cc3cccc(C)c3)c3ccccc3N(Cc3cccc(C)c3)C12 (centres undefined)", "MIC": "250 µg/mL"}
{"Compound": "Cc1cccc(CN2c3ccccc3C3(Cc4cccc(C)c4)CCN(C(=O)COc4ccccc4)C23)c1 (centres undefined)", "MIC": "250 µg/mL"}
{"Compound": "Cc1cccc(C(=O)N2CCCC3(O)c4ccccc4N(C)C23)c1 (centres undefined)", "MIC": "inactive"}
{"Compound": "COc1ccc(C(=O)N2CCC3(Cc4cccc(C)c4)c4ccccc4N(Cc4cccc(C)c4)C23)cc1 (centres undefined)", "MIC": "250 µg/mL"}
